test system: LTB4 release; test: A23187 Induced LTB4 Release; assay type: cell-based; conditions: Neutrophil; neutrophils from healthy human donors, 1 hour with test drug, 0.3 μg/ml A23187 for 10 min, LTB4 ELISA; range stated for the group of compounds tested; read-out: A123187 induced LTB4 release IC50
pIC50: −log10 of the molar value.
EXPERIMENTAL READOUT: pIC50

Illustrative cases are given below, each with its answer.
| COMPOUND | RESULT |
| --- | --- |
| CC1(C)OCC(C2OC3OC(C)(C)OC3C2NC(=O)Cc2ccccc2C(F)(F)F)O1 (centres unmarked) [Compound No. 80] | 4.52 to 6.89 |
| CC1(C)OCC(C2OC3OC(C)(C)OC3C2NC(=O)Cc2ccc(Cl)c(Cl)c2)O1 (centres unmarked) [Compound No. 100] | 4.52 to 6.89 |
| CC1(C)OCC(C2OC3OC(C)(C)OC3C2NC(=O)Cc2cccc(Cl)c2)O1 (centres unmarked) [Compound No. 84] | 4.52 to 6.89 |
| CC1(C)OCC(C2OC3OC(C)(C)OC3C2NC(=S)Nc2ccc(F)cc2)O1 (centres unmarked) [Compound No. 101] | 4.52 to 6.89 |

Note: attention shifts to another entry.
Qu. Can you look up the measured pIC50 of CC1(C)OCC(C2OC3OC(C)(C)OC3C2NC(=S)Nc2ccccc2F)O1 (centres unmarked) [Compound No. 103] for me?
Ans. 4.52 to 6.89
